Could you please report measured IC50 for the items listed next?
- measured on: Kallikrein-7 (Homo sapiens)
- Sequence (P49862 whole entry, the tested form may be a part): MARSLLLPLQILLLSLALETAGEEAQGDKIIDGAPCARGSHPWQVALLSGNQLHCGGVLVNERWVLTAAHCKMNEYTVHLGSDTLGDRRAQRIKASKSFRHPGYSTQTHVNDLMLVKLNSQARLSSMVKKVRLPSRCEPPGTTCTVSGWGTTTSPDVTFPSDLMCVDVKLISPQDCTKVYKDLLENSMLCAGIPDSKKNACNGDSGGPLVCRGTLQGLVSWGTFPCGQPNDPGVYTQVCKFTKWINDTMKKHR
- measurement notes: Inhibition of thermolysin activated recombinant human C-terminal 10-His tagged KLK7 (E23 to H252 residues) using MOCAc-Arg-Pro-Lys-Pro-Val-Glu-Nva-Trp-Arg-Lys(Dnp)-NH2 as substrate preincubated for 10 mins followed by substrate addition and measured after 30 mins by fluorescence analysis
One number for each entry, in µM.

// worked examples, IC50 included
Cc1ccc(S(=O)(=O)n2cc(C3CNC(C(C)C)=N3)c3ccccc32)cc1 (stereo unspecified)    70
CC1=NC(c2cn(S(=O)(=O)c3ccc(Cl)cc3)c3ccc(C)cc23)CN1 (stereo unspecified)    1.9

Then this molecule:
In: Provide measured IC50 on Kallikrein-7 (Homo sapiens) for CC1=NC(c2cn(S(=O)(=O)c3ccccc3Br)c3ccc(C)cc23)CN1 (stereo unspecified) please.
Out: 0.39
